# TARGET OR TEST SYSTEM: T1, mouse MAdCAM expressed on cells (mouse, UniProt Q61826 22-405)
# T1 construct: whole, on cells
# T1 sequence (looked up): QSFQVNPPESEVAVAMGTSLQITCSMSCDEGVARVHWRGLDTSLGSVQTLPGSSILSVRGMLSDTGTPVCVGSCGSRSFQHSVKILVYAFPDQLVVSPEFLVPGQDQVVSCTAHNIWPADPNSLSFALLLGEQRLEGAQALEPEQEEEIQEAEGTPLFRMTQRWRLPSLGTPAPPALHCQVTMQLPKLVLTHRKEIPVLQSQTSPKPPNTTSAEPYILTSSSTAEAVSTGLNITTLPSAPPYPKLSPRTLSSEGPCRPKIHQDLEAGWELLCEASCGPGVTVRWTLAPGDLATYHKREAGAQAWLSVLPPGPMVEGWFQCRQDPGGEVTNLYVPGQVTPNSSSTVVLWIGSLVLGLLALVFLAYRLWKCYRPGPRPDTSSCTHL
# ASSAY DETAILS: cell binding
EXPERIMENTAL READOUT: binding result

Worked cases, binding result given:
MAdCAM antibody Clone ID 56 of Table 6 (scFv) (scFv) scFv: EVQLLESGGGLVQPGGSLRLSCAASGFTFDDYAMHWVRQAPGKGLEWVSAISGGGEDTYYADSVKGRFTISRDNSKNTLYLQMNSLRAEDTAVYYCARDASYGGNYGMDVWGQGTTVTVSSGGGGSGGGGSGGGGSGGGGSDIQMTQSPSSLSASVGDRVTITCQASQDIRNYLNWYQQKPGKAPKLLIYKASSLESGVPSRFSGSGSGTDFTLTISSLQPEDFATYYCQQANSYPVTFGGGTKVEIK
no binding
MAdCAM antibody Clone ID 60 of Table 6 (scFv) (scFv) scFv: EVQLLESGGGLVQPGGSLRLSCAASGFTFDDYTMHWVRQAPGKGLEWVSDISGSGGSTYYADSVKGRFTISRDNSKNTLYLQMNSLRAEDTAVYYCAKDVVVAGTPLHFDYWGQGTLVTVSSGGGGSGGGGSGGGGSGGGGSDIQMTQSPSSLSASVGDRVTITCQASQDISNYLNWYQQKPGKAPKLLIYAASYLQSGVPSRFSGSGSGTDFTLTISSLQPEDFATYYCQQAHNYPITFGQGTRLEIK
binds
MAdCAM antibody Clone ID 5 of Table 6 (scFv) (scFv) scFv: EVQLLESGGGLVQPGGSLRLSCAASGFTFSSYWMHWVRQAPGKGLEWVSSISPGGSNIDYADSVKGRFTISRDNSKNTLYLQMNSLRAEDTAVYYCAREVQLSHYDYWGQGTLVTVSSGGGGSGGGGSGGGGSGGGGSDIQMTQSPSSLSASVGDRVTITCRASQGISNSLAWYQQKPGKAPKLLIYGASSLQSGVPSRFSGSGSGTDFTLTISSLQPEDFATYYCQQANSFPFTFGQGTKVEIK
binds
MAdCAM antibody Clone ID 44 of Table 6 (scFv) (scFv) scFv: EVQLVESGGGLVKPGGSLRLSCAASGFTFSSYWMSWVRQAPGKGLEWVSAIGTGGGTYYAAPVKGRFTISRDDSKNTLYLQMNSLKTEDTAVYYCAREWLVPYYGMDVWGQGTTVTVSSGGGGSGGGGSGGGGSGGGGSDIQMTQSPSSLSASVGDRVTITCRASQSISRWLAWYQQKPGKAPKLLIYGASNLQSGVPSRFSGSGSGTDFTLTISSLQPEDFATYYCQQSYSTPWTFGQGTKVEIK
no binding
MAdCAM antibody Clone ID 46 of Table 6 (scFv) (scFv) scFv: EVQLLESGGGLVQPGGSLRLSCAASGFSVSSNYMSWVRQAPGKGLEWVAGISYDGSSKPYADSVKGRFTISRDNSKNTLYLQMNSLRAEDTAVYYCARSRGIAARPLQHWGQGTLVTVSSGGGGSGGGGSGGGGSGGGGSDIVMTQSPDSLAVSLGERATINCKSSQSVLYSSNNKNYLAWYQQKPGQPPKLLIYQASTRQSGVPDRFSGSGSGTDFTLTISSLQAEDVAVYYCHQYYGHPPTFGGGTKVEIK
no binding

State the recorded binding result for every item in the following list.
1. MAdCAM antibody Clone ID 55 of Table 6 (scFv) (scFv) scFv: QVQLVQSGAEVKKPGASVKVSCKASGYTFTSYYMHWVRQAPGQGLEWMGIIDPSGGSTSYAQKFQGRVTMTRDTSTSTVYMELSSLRSEDTAVYYCAREEWSSGGVGYFDYWGQGTLVTVSSGGGGSGGGGSGGGGSGGGGSDIQMTQSPSSLSASVGDRVTITCRASQGISSYLAWYQQKPGKAPKLLIYATSSLQTGVPSRFSGSGSGTDFTLTISSLQPEDFATYYCQQTYSIPITFGQGTRLEIK
2. MAdCAM antibody Clone ID 35 of Table 6 (scFv) (scFv) scFv: EVQLLESGGGLVQPGGSLRLSCAASGFSFSSYTMNWVRQAPGKGLEWVSFITSSSRTIYYADSVKGRFTISRDNSKNTLYLQMNSLRAEDTAVYYCARDRRGDYGDSWYFDLWGRGTLVTVSSGGGGSGGGGSGGGGSGGGGSEIVMTQSPATLSVSPGERATLSCRASQSVRNYLAWYQQKPGQAPRLLIYGASTRATGIPARFSGSGSGTEFTLTISSLQSEDFAVYYCQQYGSSPLTFGGGTKVEIK
3. MAdCAM antibody Clone ID 21 of Table 6 (scFv) (scFv) scFv: EVQLLESGGGLVQPGGSLRLSCAASGFTFSNAWMSWVRQAPGKGLEWVSTIVGNGGATYYADSVKGRFTISRDNSKNTLYLQMNSLRAEDTAVYYCARDNPLRWQGMDVWGQGTLVTVSSGGGGSGGGGSGGGGSGGGGSDIQMTQSPSSLSASVGDRVTITCRASQDISNYLNWYQQKPGKAPKLLIYAASSLQSGVPSRFSGSGSGTDFTLTISSLQPEDFATYYCQQSYSIPPTFGPGTKVDIK
4. MAdCAM antibody Clone ID 54 of Table 6 (scFv) (scFv) scFv: EVQLLESGGGLVQPGGSLRLSCAASGFTFGDYAMSWVRQAPGKGLEWVAVVSYDGTNKYYADSVKGRFTISRDNSKNTLYLQMNSLRAEDTAVYYCAKDICSSTSCYFDLWGRGTLVTVSSGGGGSGGGGSGGGGSGGGGSDIQMTQSPSSLSASVGDRVTITCRASQNINNYVNWYQQKPGKAPKLLIYDASNLETGVPSRFSGSGSGTDFTLTISSLQPEDFATYYCQQANSFPPTFGQGTRLEIK

Result:
no binding
no binding
no binding
no binding
